Below is a list of entries, each paired with its recorded Run 1 IC50 (nM), cell-based cAMP assay, SK-N-MC cells, 3 nM human α-CGRP value.
# Target Of Assay: human CGRP receptor (human CRLR / human RAMP1 heterodimer) (human, UniProt Q16602 23-461; O60894 27-148)
# Sequence (Q16602 23-461 limits assumed, chain 1 of 2): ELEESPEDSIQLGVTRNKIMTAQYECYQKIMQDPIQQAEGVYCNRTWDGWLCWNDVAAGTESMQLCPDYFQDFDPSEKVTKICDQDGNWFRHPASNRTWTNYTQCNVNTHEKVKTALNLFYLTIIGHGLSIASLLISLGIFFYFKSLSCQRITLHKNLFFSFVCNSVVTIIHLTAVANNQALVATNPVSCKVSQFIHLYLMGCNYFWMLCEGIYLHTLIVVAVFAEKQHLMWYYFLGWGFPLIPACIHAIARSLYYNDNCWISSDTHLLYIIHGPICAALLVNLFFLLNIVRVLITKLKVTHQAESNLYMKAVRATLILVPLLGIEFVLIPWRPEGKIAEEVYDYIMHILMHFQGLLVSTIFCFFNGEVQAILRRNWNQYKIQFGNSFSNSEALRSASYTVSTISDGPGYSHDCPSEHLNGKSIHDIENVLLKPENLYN
# Sequence (O60894 27-148 limits assumed, chain 2 of 2): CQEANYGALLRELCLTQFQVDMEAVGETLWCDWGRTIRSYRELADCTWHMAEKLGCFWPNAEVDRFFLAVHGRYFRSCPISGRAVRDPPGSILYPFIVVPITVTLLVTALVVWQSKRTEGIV
# Assay Details: cell-based or functional assay
Endpoint Label: Run 1 IC50 (nM), cell-based cAMP assay, SK-N-MC cells, 3 nM human α-CGRP

[
  {
    "Binder": "anti-CGRP receptor variant antibody 10, bivalent monoclonal antibody (antibody, human IgG1, lambda, N297G, V domains shown) VH: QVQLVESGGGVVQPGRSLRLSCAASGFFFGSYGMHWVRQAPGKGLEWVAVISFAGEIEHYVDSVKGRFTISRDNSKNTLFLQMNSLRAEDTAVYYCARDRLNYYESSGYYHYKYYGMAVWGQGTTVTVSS VL: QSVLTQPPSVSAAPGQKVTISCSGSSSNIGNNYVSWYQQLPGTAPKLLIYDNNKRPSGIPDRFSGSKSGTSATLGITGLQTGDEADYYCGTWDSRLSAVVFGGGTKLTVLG",
    "Observed Result": 0.43
  },
  {
    "Binder": "anti-CGRP receptor variant antibody 02, bivalent monoclonal antibody (antibody, human IgG1, lambda, N297G, V domains shown) VH: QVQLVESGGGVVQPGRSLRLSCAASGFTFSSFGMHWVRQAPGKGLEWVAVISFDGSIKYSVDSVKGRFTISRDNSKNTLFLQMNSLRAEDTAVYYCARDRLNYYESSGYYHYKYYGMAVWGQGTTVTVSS VL: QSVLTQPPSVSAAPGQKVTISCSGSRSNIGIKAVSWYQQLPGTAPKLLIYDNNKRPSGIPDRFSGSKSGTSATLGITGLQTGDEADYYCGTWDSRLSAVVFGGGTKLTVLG",
    "Observed Result": 0.1
  },
  {
    "Binder": "anti-CGRP receptor variant antibody 04, bivalent monoclonal antibody (antibody, human IgG1, lambda, N297G, V domains shown) VH: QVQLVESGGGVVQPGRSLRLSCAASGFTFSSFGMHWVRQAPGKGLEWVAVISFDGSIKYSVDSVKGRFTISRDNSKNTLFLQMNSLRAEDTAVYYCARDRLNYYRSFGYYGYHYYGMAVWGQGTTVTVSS VL: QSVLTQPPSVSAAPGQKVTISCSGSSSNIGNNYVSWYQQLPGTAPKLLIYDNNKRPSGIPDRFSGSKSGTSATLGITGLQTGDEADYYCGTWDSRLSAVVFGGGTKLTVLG",
    "Observed Result": 0.14
  },
  {
    "Binder": "anti-CGRP receptor variant antibody 08, bivalent monoclonal antibody (antibody, human IgG1, lambda, N297G, V domains shown) VH: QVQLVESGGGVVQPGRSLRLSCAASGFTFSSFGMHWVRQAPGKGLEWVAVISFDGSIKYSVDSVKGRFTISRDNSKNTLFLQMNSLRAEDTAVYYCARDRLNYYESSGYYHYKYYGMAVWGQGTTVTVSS VL: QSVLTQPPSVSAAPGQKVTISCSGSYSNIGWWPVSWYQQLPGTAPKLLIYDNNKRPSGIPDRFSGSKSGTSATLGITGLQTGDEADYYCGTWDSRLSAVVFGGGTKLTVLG",
    "Observed Result": 0.28
  },
  {
    "Binder": "anti-CGRP receptor variant antibody 01, bivalent monoclonal antibody (antibody, human IgG1, lambda, N297G, V domains shown) VH: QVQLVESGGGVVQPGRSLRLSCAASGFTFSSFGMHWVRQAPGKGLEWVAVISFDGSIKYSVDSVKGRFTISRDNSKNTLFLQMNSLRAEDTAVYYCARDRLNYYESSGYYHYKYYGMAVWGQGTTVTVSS VL: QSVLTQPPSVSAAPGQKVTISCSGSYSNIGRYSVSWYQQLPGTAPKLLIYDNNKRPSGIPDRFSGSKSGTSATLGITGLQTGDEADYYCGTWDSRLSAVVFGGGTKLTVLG",
    "Observed Result": 0.13
  }
]
